FYI, the data here is from patent US20250002574A1.

- Target: T1, IL-11 (UniProt P20809 22-199, limits assumed)
- T1 construct: also called IL-11 protein; IL-11 antigen
- T1 sequence (looked up): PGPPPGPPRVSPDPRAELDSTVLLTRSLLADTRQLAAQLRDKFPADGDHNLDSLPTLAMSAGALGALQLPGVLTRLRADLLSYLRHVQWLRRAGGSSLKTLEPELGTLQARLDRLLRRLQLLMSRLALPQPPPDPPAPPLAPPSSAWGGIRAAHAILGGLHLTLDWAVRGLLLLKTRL
- Assay summary: flow cytometry of phage clone; cells not given
Item-by-item account of Flow (Mean)
The reply should contain only the number, in mean fluorescence.

Solved entries (count: 5):
1) 1F10 (scFv, As m119: scFv on phage) scFv: QVQLVQSGAEVKKPGASVKVSCKASDYTFTNYWLGWVRQAPGQGLEWMGHIYPGGGYTNYNEKFKGRVTMTRDTSTSTVYMELSSLRSEDTAVYYCARVRSGNDALDIWGQGTLVTVSSGGGGSGGGGSGGGGSEIVLTQSPATLSLSPGERATLSCRASESVDEYGISFMNWFQQKPGQAPRLLIYSASNQGDGIPARFSGSGSGTDFTLTISSLEPEDFAVYFCQQSKDVPWTFGGGTKLEIK ... 2640
2) 1G9 (scFv, As m119: scFv on phage) scFv: QVQLVQSGAEVKQPGASVKVSCKASDYTFTNYWLGWVRQAPGQGLEWMGHIYPGGGYTNYNEKFKGRVTMTRDTSTSTVYMELSSLRSEDTAVYYCARVRSGNDALDFWGQGTLVTVSSGGGGSGGGGSGDGGSEIVLTQSPATLSLSPGERATLSCRASESVDEYGISFMNWFQQKPGQAPRLLIYSASNRGSGIPARFSGSGSGTDFTLTINSLEPEDFAVYFCQQSKEVPWTFGGGTKLEIK ... 2240
3) 2F1 (scFv, As m119; the printed mutations are the same as those of 2E2) scFv: QVQLVQSGAEVKKPGASVKVSCKASDYTFTNYWLGWVRQAPGQGLEWMGHIYPGGGYTNYNEKFKGRVTMTRDTSTSTVYMELSSLRSEDTAVYYCARVSSGNDALDFWGQGTLVTVSSGGGGSGGGGSGGGGSEIVLTQSPATLSLSPGERATLSCRASESVDEYGISFMNWFQQKPGQAPRLLIYSASNQGSGIPARFSGSGSGTDFTLTISSLEPEDFAVYFCQQSKELPWTFGGGTKLEIK ... 2390
4) 2G9 (scFv, As m119: scFv on phage) scFv: QVQLVQSGAEVKKPGASVKVSCKASDYTFTNYWLGWVRQAPGQGLEWMGHIYPGGGYTNYNEKFKGRVTMTRDTSTSTVYMELSSLRSEDTAVYYCARVSSGNDALDFWGQGTLVTVSSGGGGSGGGGSGGGGSEIVLTQSPATLSLSPGERATLSCRASESVDEYGISFMNWFQQKPGQAPRLLIYGASNQGSGIPARFSGSGSGTDFTLTISSLEPEDFAVYFCQQSKELPWTFGGGTKLEIK ... 1910
5) 1F12 (scFv, As m119: scFv on phage) scFv: QVQLVQSGAEVKKPGASVKVSCKASDYTFTNYWLGWVRQAPGQGLEWMGHIYPGGGYTNYNEKFKGRVTMTRDTSTSTVYMELSSLRSEDTAVYYCARVSSGNDALDFWGQGTLVTVSSGGGGSGGGGSGGGGSEIVLTQSPATLSLSPGERATLSCRASESVDEYGISFMNWFQQKPGQAPRLLIYSASNQASGIPARFSGSGSGTDFTLTISSLEPEDFAVYFCQQSKELPWTFGGGTKLEIK ... 4140

Quick one: Flow (Mean) of 1G11 (scFv, As m119; the printed mutations are the same as those of 1F12) scFv: QVQLVQSGAEVKKPGASVKVSCKASDYTFTNYWLGWVRQAPGQGLEWMGHIYPGGGYTNYNEKFKGRVTMTRDTSTSTVYMELSSLRSEDTAVYYCARVSSGNDALDFWGQGTLVTVSSGGGGSGGGGSGGGGSEIVLTQSPATLSLSPGERATLSCRASESVDEYGISFMNWFQQKPGQAPRLLIYSASNQASGIPARFSGSGSGTDFTLTISSLEPEDFAVYFCQQSKELPWTFGGGTKLEIK ?
2900

Quick one: Flow (Mean) of 2E2 (scFv, As m119: scFv on phage) scFv: QVQLVQSGAEVKKPGASVKVSCKASDYTFTNYWLGWVRQAPGQGLEWMGHIYPGGGYTNYNEKFKGRVTMTRDTSTSTVYMELSSLRSEDTAVYYCARVSSGNDALDFWGQGTLVTVSSGGGGSGGGGSGGGGSEIVLTQSPATLSLSPGERATLSCRASESVDEYGISFMNWFQQKPGQAPRLLIYSASNQGSGIPARFSGSGSGTDFTLTISSLEPEDFAVYFCQQSKELPWTFGGGTKLEIK ?
2100

Quick one: Flow (Mean) of 2F2 (scFv, As m119: scFv on phage) scFv: QVQLVQSGAEVKKPGASVKVSCKASDYTFTNYWLGWVRQAPGQGLEWMGHIYPGGGYTNYNEKFKGRVTMTRDTSTSTVYMELSSLRSEDTAVYYCARVSSGNDALDLWGQGTLVTVSSGGEGSGGGGSGGGGSEIVLTQSPATLSLSPGERATLSCRASESVDEYGISFMNWFQQKPGQAPRLLIYSASNQGSGIPARFSGSGSGTDFTLTISSLEPEDFAVYFCQQSKEVPWTFGGGTKLEIK ?
2000

Quick one: Flow (Mean) of 1A10 (scFv) scFv: QVQLVQSGAEVKKPGASVKVSCKASDYTFTNYWLGWVRQAPGQGLEWMGHIYPGGGYTNYNEKFKGRVTMTRDTSTSTVYMELSSLRSEDTAVYYCARVSSGNDALDFWGQGTLVTVSSGGGGSGGGGSGGGGSEIVLTQSPATLSLSPGERATLSCRASESVDEYGISFMNWFQQKPGQAPRLLIYSASNQGSGIPARFSGSGSGTDFTLTISSLEPEDFAVYFCQQSKEQPWTFGGGTKLEIK ?
2200

Quick one: Flow (Mean) of 1F9 (scFv, As m119: scFv on phage) scFv: QVQLVQSGAEVKKPGASVKVSCKASDYTFHNYWLGWVRQAPGQGLEWMGHIYPGGGYTNYNEKFKGRVTMTRDTSTSTVYMELSSLRSEDTAVYYCARVSSGNDALDFWGQGTLVTVSSGGGGSGGGGSGGGGSEIVLTQSPATLSLSPGERATLSCRASESVDEYGISFMNWFQQKPGQAPRLLIYSASNQGSGIPARFSGSGSGTDFTLTISSLEPEDFAVYFCQQSKELPWTFGGGTKLEIK ?
3820
